Source listed as patent US9562033B2.

Could you please report measured pEC50 for the items listed next?
- Test system: NL4-3 strain of HIV-1
- Assay: HIV-1 replication inhibition: cyto-protection of MT4 cells infected with NL4-3 virus (CellTiter-Glo viability assay)
- Format: cell-based
- Condition Summary: Human immunodeficiency virus 1, NL43, 120 h, concentration leading to 50% of cyto-protection, 5 days incubation
- Method: The antiviral activity, particularly against HIV, of compounds according to the invention is evaluated by the protocol described below. Preparation of Virus Stock of the NL4-3 Strain of HIV-1 […] MT4 cells (from the NIH AIDS Research and Reference Reagent Program) in RPMI complete medium were counted (10×10^6 cells per well in Falcon 353047 Multiwell™ 24 well) and infected for 2 hours at 37°, at a multiplicity of infection (moi) of 0.0001-0.00001. […]
Scale explanation: pEC50 corresponds to minus log10 of a concentration expressed in moles per litre.

In: Need pEC50 of Cc1sc(-c2ccncc2)c(C2=CCC(C)(C)CC2)c1C(OC(C)(C)C)C(=O)O (centres unmarked) , thanks.
Out: 7.39

In: I am curious: what pEC50 value has been reported for CCCc1sc(C)c(C(OC(C)(C)C)C(=O)O)c1-c1ccc2c(c1)CCCO2 (centres unmarked) ?
Out: 5.85

In: Requested field: pEC50. Item: Cc1sc(-c2ccc(C(=O)N(C)C)cc2)c(C2=CCC(C)(C)CC2)c1C(OC(C)(C)C)C(=O)O (centres unmarked)
Out: 5.48

In: Please report the recorded pEC50 for Cc1sc(-c2cnc3c(c2)CCCO3)c(-c2ccc3c(c2)CCCO3)c1C(OC(C)(C)C)C(=O)O (centres unmarked) .
Out: 6.74

In: # query: pEC50 of entry Cc1sc(-c2ccncc2)c(C2=CCC(C(C)C)CC2)c1C(OC(C)(C)C)C(=O)O (centres unmarked)
Out: 6.80

In: Sample Cc1sc(-c2ccncc2)c(-c2cc(F)c3c(c2)CCCO3)c1C(OC(C)(C)C)C(=O)O (centres unmarked) — what was its pEC50?
Out: 6.44

In: For the compound Cc1sc(-c2nsc(Cl)c2C)c(C2=CCC(C)(C)CC2)c1C(OC(C)(C)C)C(=O)O (centres unmarked) , what pEC50 is on record?
Out: 6.09

In: Any idea what pEC50 was measured for CC(=O)NCc1ccc(-c2sc(C)c(C(OC(C)(C)C)C(=O)O)c2-c2ccc3c(c2)CCCO3)cc1 (centres unmarked) ?
Out: 6.24

---

- Tested on: NL4-3 strain of HIV-1
- Assay: HIV-1 replication inhibition: cyto-protection of MT4 cells infected with NL4-3 virus (CellTiter-Glo viability assay)
- Assay type: cell-based
- Condition Summary: Human immunodeficiency virus 1, NL43, 120 h, concentration leading to 50% of cyto-protection, 5 days incubation
pEC50: −log10 of the molar value.
Use 6 as the dividing line for pEC50, with the line itself on the class 1 side and lower values as class 0.

In: Exam item: decide whether the reported pEC50 for CCCNC(=O)c1cccc(-c2sc(C)c(C(OC(C)(C)C)C(=O)O)c2C2=CCC(C)(C)CC2)c1 (centres unmarked) is at least 6.
Out: class 1

In: Is the recorded value of pEC50 equal to or greater than 6 for this molecule? Cc1sc(-c2cccnc2)c(-c2ccc3c(c2)CCCO3)c1C(OC(C)(C)C)C(=O)O (centres unmarked)
Out: class 1

In: # check: pEC50 of CNC(=O)c1ccccc1-c1sc(C)c(C(OC(C)(C)C)C(=O)O)c1C1=CCC(C)(C)CC1 (centres unmarked) is greater than or equal to 6
Out: class 1

In: Hi team, for Cc1cccc(-c2sc(C)c(C(OC(C)(C)C)C(=O)O)c2C2=CCC(C)(C)CC2)n1 (centres unmarked) , is the recorded pEC50 at or above 6?
Out: class 0

In: Decide: is the reported value of pEC50 for Cc1sc(-c2ccnc(OCc3ccccc3)c2)c(-c2ccc3c(c2)CCCO3)c1C(OC(C)(C)C)C(=O)O (centres unmarked) equal to or greater than 6?
Out: class 1

In: In plain terms: is recorded pEC50 at least 6 for Cc1sc(-c2nccs2)c(C2=CCC(C)(C)CC2)c1C(OC(C)(C)C)C(=O)O (centres unmarked) ?
Out: class 1
